Test: NCI Yeast Anticancer Drug Screen. Data for the CLN2oe strain (AID 163);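 further: 0% = growth of vehicle-only control cultures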
Details: S. cerevisiae CLN2oe strain, at 3.7 µM, stronger effect = higher value
Experimental: Growth inhibition of yeast strains with defined genetic alterations is measured as a screen for potential anti-cancer activity. Selected strains with alterations in DNA damage repair or cell cycle control were exposed to compounds and growth inhibition was measured relative to vehicle treated controls. The strain used in this assay is CLN2oe
The panel holds about 79,000 compounds, 15% with a hit somewhere; the sample as a whole holds those more often.
readout-label: growth inhibition (%)
Answers are plain numbers, in %.

Known results for compounds:
{"compound": "CC1CCC2(NC1)OC1CC3C4CCC5CC(OC6OC(CO)C(OC7OC(CO)C(O)C(OC8OCC(O)C(O)C8O)C7OC7OC(CO)C(O)C(O)C7O)C(O)C6O)CCC5(C)C4CCC3(C)C1C2C (stereo not given)", "readout-label": "growth inhibition", "experimental-value": -14}
{"compound": "Cc1cc[n+](C2=C(Nc3cccc(C(F)(F)F)c3)C(=O)c3ccccc3C2=O)cc1", "readout-label": "growth inhibition", "experimental-value": 4}
{"compound": "O=C1C=CC(=O)C1(Br)Br", "readout-label": "growth inhibition", "experimental-value": 3}
{"compound": "Br[Se]c1ccccn1", "readout-label": "growth inhibition", "experimental-value": 11}

Fill blank: measured growth inhibition of the compound CC1=C(O)C(=O)C=C2C1=CC=C1[C@@]2(C)CCC2(C)[C@@H]3C[C@@H](C)C(=O)C[C@]3(C)CC[C@]12C (stereo not given in full) is ____.
10

----------
Task for the reader: assign each of the following molecules its reported growth inhibition.
Assay: NCI Yeast Anticancer Drug Screen. Data for the mlh1 strain (AID 171);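 further: 0% = growth of vehicle-treated control cultures of the same strain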
Details: S. cerevisiae mlh1 strain growth inhibition; at 11.0 µM; stronger effect = higher value
Compounds without any hit were thinned out: in the full panel of roughly 79,000, 15% have a hit.
Numbers only, in %.

Return reported growth inhibition values for all items listed beneath this line.
1. N#Cc1cc(N(CCCl)CCCl)c([N+](=O)[O-])cc1[N+](=O)[O-]
2. CC1CC(C)CC(C)C(O)/C(C#N)=C/C=C/CC(C2CCCC2C(=O)O)OC(=O)CC(O)C(C)C1 (configuration not stated)
3. O=c1c2ccccc2[se]n1-c1cccnc1
4. Cn1cnc(N)c1C(=N)[Se]

[34, 98, 98, 28]

Return reported growth inhibition values for all items listed beneath this line.
1. Cc1ccc2nc3sc(=O)sc3nc2c1
2. CC[C@](O)(C(=O)O)c1cc2n(c(=O)c1CO)Cc1cc3ccccc3nc1-2
3. COc1cccc2c1C(=O)c1c(O)c3c(c(O)c1C2=O)C[C@@](O)(/C(C)=N\O)C[C@@H]3OC1CC(N)C(O)C(C)O1 (some centres not stated)
4. Nc1ccc(Cl)cc1C(=O)c1ccccc1

98
81
11
-31

Return reported growth inhibition values for all items listed beneath this line.
1. CN(C)CCC(C(=O)C(Br)Br)(c1ccccc1)c1ccccc1
2. O=C1c2ccccc2C(=O)C(Cl)C1Cl (configuration not stated)
3. CC(=O)O/C(=C1\C[C@H]2[C@@H]3CC=C4C[C@@H](OC(C)=O)CC[C@]4(C)[C@H]3CC[C@]2(C)C1=O)C(F)(F)F
4. Cc1nc2ccccc2cc1C[N+]12CN3CN(CN(C3)C1)C2
5. Cc1c(N)nc([C@H](CC(N)=O)NC[C@H](N)C(N)=O)nc1C(=O)N[C@H](C(=O)N[C@H](C)[C@@H](O)[C@H](C)C(=O)N[C@H](C(=O)NCCc1nc(-c2nc(C(=O)NCCC[S+](C)C)cs2)cs1)[C@@H](C)O)C(OC1OC(CO)C(O)C(O)C1OC1OC(CO)C(O)C(OC(N)=O)C1O)c1cnc[nH]1 (some centres not stated)
6. Oc1cccc2nc3ccccc3nc12

61
93
3
-6
18
-27

Return reported growth inhibition values for all items listed beneath this line.
1. CC[C@@]1(O)C(=O)OCc2c1cc1n(c2=O)Cc2cc3c(NC(=O)CN)cccc3nc2-1
2. C/C(=N\NC(N)=O)C(CN1CCOCC1)C(c1ccccc1)c1c(O)c2ccccc2oc1=O (configuration not stated)
3. O=Cc1ccc(C(F)(F)F)cc1.[C-]#[O+].[C-]#[O+].[C-]#[O+].[Cr]
4. COc1cc([C@@H]2c3cc4c(cc3C[C@@H]3COC(=O)C32)OCO4)cc(OC)c1O (some centres not stated)

1: -3; 2: 0; 3: 7; 4: 66

----------
Assay: NCI Yeast Anticancer Drug Screen. Data for the bub3 strain (AID 167)
Conditions: S. cerevisiae bub3 mutant strain, at 50.0 µM (retest, dose inferred, filed as 5.0), stronger effect = higher value
About 79,000 compounds went through this panel and 15% of them were active in at least one assay; those are over-represented in the sample as a whole.
Task for the reader: assign each of the following compounds its reported growth inhibition.
Give bare numbers, in %.

{"compound": "CC(=O)OCC1OC(OC(C)C)[CH]([Hg][S]Cc2ccccc2)C(OC(C)=O)C1OC(C)=O (configuration not stated)", "experimental-value": 98}
{"compound": "NCCc1ccc(OCc2ccccc2)c(OCc2ccccc2)c1", "experimental-value": 92}
{"compound": "CCC(C)(c1ccc(O)cc1)c1ccc(O)cc1", "experimental-value": 99}
{"compound": "C[N+](C)=C1C=CC(=C2C=CSC=C2)C=C1", "experimental-value": 72}
{"compound": "Oc1cccc2cccnc12 (tested in a mixture with another compound)", "experimental-value": -4}

Return reported growth inhibition values for all items listed beneath this line.
1. CNC(Cc1ccccc1)c1ccc(OC)c(OC)c1 (configuration not stated)
2. CC1(C)CC(=O)C([Se]C2=C(O)CC(C)(C)CC2=O)=C(O)C1
3. O=P(CCCCP(=O)(c1ccccc1)c1ccccc1)(c1ccccc1)c1ccccc1.[Cl][Sn]([Cl])([c]1ccccc1)[c]1ccccc1
4. Clc1ccc(CCN2CCOCC2)c(Cl)c1
5. Cc1cccc(NC(=O)CBr)c1
6. COc1cc(C2c3cc4c(cc3[C@@H](Nc3ccc(F)cc3)C3COC(=O)[C@H]23)OCO4)cc(OC)c1O (some centres not stated)
7. CCCC[CH2][Sn]([CH2]CCCC)[CH2]CCCC.CCCC[CH2][Sn]([CH2]CCCC)[CH2]CCCC

[28, 99, 98, 54, 98, 99, 100]

Return reported growth inhibition values for all items listed beneath this line.
1. CNC(=O)Oc1ccccc1/C=N\Sc1ccc(Cl)cc1
2. COc1ccccc1[As]=O (configuration not stated)

1: 6; 2: 99

Return reported growth inhibition values for all items listed beneath this line.
1. CCN1CCC(O)(c2ccc(Cl)c(Cl)c2)C(C(=O)c2ccc(Cl)c(Cl)c2)C1 (configuration not stated)
2. CCOC(=S)S
3. O=[C-]CCCCCC[C-]=O.[C-]#[O+].[C-]#[O+].[C-]#[O+].[C-]#[O+].[Fe+6].[Fe+6].[c-]1[c-][c-][cH-][c-]1.[c-]1[c-][c-][cH-][c-]1

[98, 99, 97]

Return reported growth inhibition values for all items listed beneath this line.
1. C/C(=N\O)C(CN(C)C)C(c1ccccc1)c1c(O)c2ccccc2oc1=O (configuration not stated)
2. c1cc2c(cc1C1OC[C@H]3[C@@H](c4ccc5c(c4)OCO5)OC[C@@H]13)OCO2 (some centres not stated)
3. CCNC(=O)OCC1C2=C(C(=O)C(C)=C(N)C2=O)N2CC3C(N3C)C12OC (configuration not stated)
4. [Se]c1ncnc2nc[nH]c12

1: 12; 2: 83; 3: 50; 4: 60

Fill blank: measured growth inhibition of the compound CCC[CH2][Pb]([Cl])([CH2]CCC)[CH2]CCC is ____.
98

----------
Assay: NCI Yeast Anticancer Drug Screen. Data for the bub3 strain (AID 167)
Conditions: S. cerevisiae bub3 mutant strain, at 50.0 µM, stronger effect = higher value
The panel holds about 79,000 compounds, 15% with a hit somewhere; the sample as a whole holds those more often.
Records here are stratified by growth inhibition; strata: lo = under 10%, med = from 10% up to 90%, hi = 90% and over

The following compounds have reported results that may help.
{"compound": "c1ccc(P(CCP(c2ccccc2)c2ccccc2)CCP(c2ccccc2)c2ccccc2)cc1", "cat": "hi"}
{"compound": "CC(C)(C)OOC(=O)c1ccccc1", "cat": "lo"}
{"compound": "NC(N)=N/N=C1\\C(=O)N(c2ccc(Cl)cc2)C(=O)C1C(=O)Nc1ccc(Cl)cc1 (stereo not given)", "cat": "lo"}
{"compound": "COC(=O)C(CCCN=C(N)N[N+](=O)[O-])NC(=O)c1ccc2c(c1O)C(=O)c1ccccc1C2=O (stereo not given)", "cat": "med"}
{"compound": "C[N+](C)(C)CC1CCC(C[N+](C)(C)C)C1=O (stereo not given)", "cat": "med"}

Please let me know in which category the item CC(C)(C)c1cc([N+](=O)[O-])cc([N+](=O)[O-])c1O belongs.
med

Please let me know in which category the item CC1(C)OCC(COC(=O)C=[N+]=[N-])O1 (stereo not given) belongs.
lo

Please let me know in which category the item CC1(O)CC([CH2][Hg][I])OC([CH2][Hg][I])C1 (stereo not given) belongs.
hi
